target: Vasopressin V2 receptor (Homo sapiens)
Sequence (P30518 whole entry): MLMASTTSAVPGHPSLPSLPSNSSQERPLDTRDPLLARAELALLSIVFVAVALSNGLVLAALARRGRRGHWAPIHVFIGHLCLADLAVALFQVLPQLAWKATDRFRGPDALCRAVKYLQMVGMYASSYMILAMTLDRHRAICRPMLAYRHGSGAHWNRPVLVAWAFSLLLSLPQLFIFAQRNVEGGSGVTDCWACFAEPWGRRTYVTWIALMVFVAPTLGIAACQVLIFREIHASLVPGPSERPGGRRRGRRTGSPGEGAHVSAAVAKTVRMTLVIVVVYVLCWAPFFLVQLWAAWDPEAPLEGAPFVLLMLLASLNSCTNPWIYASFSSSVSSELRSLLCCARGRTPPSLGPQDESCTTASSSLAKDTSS
*1 amine or outer side, *2 acyl side, *3 side chain or, on linkers, in order; H or OH if unused. Where a SMILES comes first, the peptide text is derived from it. Bridges are numbered along the chain shown (N, C = ends). [ ]: non-standard residue; d: D form. The star is where a group is joined. 6FAM = O=C1OC2(c3ccc(O)cc3Oc3cc(O)ccc32)c2cc(C(=O)*)ccc21; X4 = O=C(CC1(S[*:2])CCCCC1)[*:1]; Orn = NCCC[C@H](N)C(=O)O; Mpa = O=C(O)CCS
measuredParameter: Ki

Query the reported Ki for Vasopressin V2 receptor (Homo sapiens); item: CC[C@H](C)[C@@H]1NC(=O)[C@H](Cc2ccc(O)cc2)NC(=O)CCSSC[C@@H](C(=O)N2CCC[C@H]2C(=O)N[C@@H](CCCCNC(=O)c2ccc3c(c2)C2(OC3=O)c3ccc(O)cc3Oc3cc(O)ccc32)C(=O)NCC(N)=O)NC(=O)[C@H](CC(N)=O)NC(=O)[C@H](CCC(N)=O)NC1=O ([Mpa]YIQNCPK(6FAM)G-NH2; disulfide 1-6) > 10 µM

Query the reported Ki for Vasopressin V2 receptor (Homo sapiens); item: CC[C@H](C)[C@@H]1NC(=O)[C@H](Cc2ccc(O)cc2)NC(=O)CCSSC[C@@H](C(=O)N2CCC[C@H]2C(=O)N[C@@H](CCCNC(=O)c2ccc3c(c2)C2(OC3=O)c3ccc(O)cc3Oc3cc(O)ccc32)C(=O)NCC(N)=O)NC(=O)[C@H](CC(N)=O)NC(=O)[C@H](CCC(N)=O)NC1=O ([Mpa]YIQNCP[Orn](6FAM)G-NH2; disulfide 1-6) > 10 µM

Query the reported Ki for Vasopressin V2 receptor (Homo sapiens); item: "CC[C@H](C)[C@@H]1NC(=O)[C@@H](Cc2ccc(O)cc2)NC(=O)CC2(CCCCC2)SSC[C@@H](C(=O)N2CCC[C@H]2C(=O)N[C@@H](CCCNC(=O)c2ccc3c(c2)C2(OC3=O)c3ccc(O)cc3Oc3cc(O)ccc32)C(=O)O)NC(=O)[C@H](CC(N)=O)NC(=O)[C@H]([C@@H](C)O)NC1=O" > 10 µM

Query the reported Ki for Vasopressin V2 receptor (Homo sapiens); item: CC[C@H](C)[C@@H]1NC(=O)[C@H](Cc2ccc(OC)cc2)NC(=O)CC2(CCCCC2)SSC[C@@H](C(=O)N2CCC[C@H]2C(=O)N[C@@H](CCCN)C(=O)N[C@@H](Cc2ccc(O)cc2)C(N)=O)NC(=O)[C@H](CC(N)=O)NC(=O)[C@H]([C@@H](C)O)NC1=O (Y(Me)ITNCP[Orn]Y-NH2; linker N-5 via X4) 0.93 µM

* * *

Molecular target: UniProtKB P47901
Sequence (P47901 whole entry): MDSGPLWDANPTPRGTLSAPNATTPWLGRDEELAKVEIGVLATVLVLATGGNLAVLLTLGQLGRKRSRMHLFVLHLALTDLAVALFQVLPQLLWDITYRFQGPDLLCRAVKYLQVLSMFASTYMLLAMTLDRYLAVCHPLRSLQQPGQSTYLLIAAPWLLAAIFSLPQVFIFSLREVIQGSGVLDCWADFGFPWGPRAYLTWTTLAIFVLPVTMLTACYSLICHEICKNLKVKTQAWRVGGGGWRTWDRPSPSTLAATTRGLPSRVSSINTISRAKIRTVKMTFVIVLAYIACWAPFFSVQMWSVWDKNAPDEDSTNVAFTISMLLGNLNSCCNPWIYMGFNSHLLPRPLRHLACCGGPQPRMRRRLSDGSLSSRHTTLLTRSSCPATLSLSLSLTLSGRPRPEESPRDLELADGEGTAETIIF
Assay: Binding affinity towards human Vasopressin V1b receptor
*1 amine or outer side, *2 acyl side, *3 side chain or, on linkers, in order; H or OH if unused. Where a SMILES comes first, the peptide text is derived from it. Bridges are numbered along the chain shown (N, C = ends). [ ]: non-standard residue; d: D form. The star is where a group is joined. 6FAM = O=C1OC2(c3ccc(O)cc3Oc3cc(O)ccc32)c2cc(C(=O)*)ccc21; X1 = O=C([C@@H](O)CS[*:2])[*:1]; Orn = NCCC[C@H](N)C(=O)O; Mpa = O=C(O)CCS
measuredParameter: Ki

Query the reported Ki for UniProtKB P47901; item: CC[C@H](C)[C@@H]1NC(=O)[C@H](Cc2ccc(O)cc2)NC(=O)CCSSC[C@@H](C(=O)N2CCC[C@H]2C(=O)N[C@@H](CCCCNC(=O)c2ccc3c(c2)C2(OC3=O)c3ccc(O)cc3Oc3cc(O)ccc32)C(=O)NCC(N)=O)NC(=O)[C@H](CC(N)=O)NC(=O)[C@H](CCC(N)=O)NC1=O ([Mpa]YIQNCPK(6FAM)G-NH2; disulfide 1-6) 124 nM

Query the reported Ki for UniProtKB P47901; item: "CC[C@H](C)[C@@H]1NC(=O)[C@@H](Cc2ccc(O)cc2)NC(=O)CC2(CCCCC2)SSC[C@@H](C(=O)N2CCC[C@H]2C(=O)N[C@@H](CCCNC(=O)c2ccc3c(c2)C2(OC3=O)c3ccc(O)cc3Oc3cc(O)ccc32)C(=O)O)NC(=O)[C@H](CC(N)=O)NC(=O)[C@H]([C@@H](C)O)NC1=O" > 1000 nM

Query the reported Ki for UniProtKB P47901; item: CC[C@H](C)[C@@H]1NC(=O)[C@H](Cc2ccc(O)cc2)NC(=O)[C@@H](O)CSSC[C@@H](C(=O)N2CCC[C@H]2C(=O)N[C@@H](CCCNC(=O)c2ccc3c(c2)C2(OC3=O)c3ccc(O)cc3Oc3cc(O)ccc32)C(=O)NCC(N)=O)NC(=O)[C@H](CC(N)=O)NC(=O)[C@H](CCC(N)=O)NC1=O (YIQNCP[Orn](6FAM)G-NH2; linker N-5 via X1) 126 nM
